From: the supplement of paper PMC10065799

target: FGFR1 (UniProt P11362); test: phosphorylation enrichment, bacterial display (enrichment ratio); higher = better substrate or ligand; peptides without Tyr show the background
Sequence (P11362 whole entry, looked up): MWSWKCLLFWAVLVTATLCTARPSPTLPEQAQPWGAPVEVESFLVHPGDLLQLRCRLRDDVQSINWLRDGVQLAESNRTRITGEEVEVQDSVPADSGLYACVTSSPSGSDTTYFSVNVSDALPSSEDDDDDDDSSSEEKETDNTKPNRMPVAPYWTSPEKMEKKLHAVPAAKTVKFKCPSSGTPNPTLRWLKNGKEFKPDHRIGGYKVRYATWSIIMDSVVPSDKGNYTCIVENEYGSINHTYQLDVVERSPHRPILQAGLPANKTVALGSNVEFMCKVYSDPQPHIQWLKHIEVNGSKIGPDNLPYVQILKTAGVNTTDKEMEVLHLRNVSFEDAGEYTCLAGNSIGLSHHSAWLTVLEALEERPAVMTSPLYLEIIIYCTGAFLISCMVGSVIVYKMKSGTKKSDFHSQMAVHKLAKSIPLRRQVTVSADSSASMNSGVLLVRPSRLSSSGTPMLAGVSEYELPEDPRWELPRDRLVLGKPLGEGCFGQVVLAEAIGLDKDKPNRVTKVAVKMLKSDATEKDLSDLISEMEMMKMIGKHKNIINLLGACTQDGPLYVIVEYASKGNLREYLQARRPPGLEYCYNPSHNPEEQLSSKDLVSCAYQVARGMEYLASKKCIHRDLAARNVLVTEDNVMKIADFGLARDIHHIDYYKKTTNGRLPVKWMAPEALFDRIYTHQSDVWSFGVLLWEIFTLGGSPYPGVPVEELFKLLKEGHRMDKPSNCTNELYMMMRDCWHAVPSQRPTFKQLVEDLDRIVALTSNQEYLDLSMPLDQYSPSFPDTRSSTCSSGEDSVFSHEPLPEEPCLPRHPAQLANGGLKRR
Please provide measured phosphorylation enrichment for the entries that follow.

QDTSRYTVSNL [BIRC3_Y245] | 0.516

Please look at the items below and tell me phosphorylation enrichment for each one, in order.
1. TTASRYLKVSD [MYOM2_Y871_N869S]
2. YIPFRYPKEFQ [IDS_Y234_H229Y]
3. SHNELYYEAAE [VANGL1_Y344_E347A]
4. EAEALYQTKFQ [KRT73_Y325]

A)
0.366
0.748
2.63
0.534

Please look at the items below and tell me phosphorylation enrichment for each one, in order.
1. IRQDDYESLKE [MTR_Y921_H920D]
2. ENKGVYVPMSG [IVD_Y277_L279P]
3. LFMGDYVDRGY [PPP2CA_Y86]
4. SAVTGYRVDVI [FN1_Y937]

A)
1: 0.5; 2: 0.48; 3: 1.46; 4: 0.398

Please look at the items below and tell me phosphorylation enrichment for each one, in order.
1. LNPDGYKKAFE [CPXM2_Y427_E428K_YF]
2. MENFIYESMRY [CYP19A1_Y361]
3. EILLSYLRTGF [TGM1_Y365_YF]

A)
1: 0.866; 2: 0.569; 3: 0.433

Please look at the items below and tell me phosphorylation enrichment for each one, in order.
1. KTSGNYLAVTG [WDR19_Y28]
2. ETLLYYGCRRS [POR_Y564]

A)
0.5
0.795

----------
molecular target: Grb2 SH2 (UniProt P62993); assay: SH2 binding enrichment of the phosphorylated peptide, bacterial display (enrichment ratio); higher = better substrate or ligand; peptides without Tyr show the background
Sequence (P62993 whole entry, looked up): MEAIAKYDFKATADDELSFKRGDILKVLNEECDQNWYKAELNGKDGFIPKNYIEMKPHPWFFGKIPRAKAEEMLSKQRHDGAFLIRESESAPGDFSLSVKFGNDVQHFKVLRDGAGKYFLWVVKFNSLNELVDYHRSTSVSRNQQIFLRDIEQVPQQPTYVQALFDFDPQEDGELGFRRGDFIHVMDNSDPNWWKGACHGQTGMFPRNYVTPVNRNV
reported_endpoint: SH2 binding enrichment
Give bare numbers.

GHLYAYDWISI [BEST1_Y227] | 1.56
FKWAVYCIIGR [NUP93_Y391_R388W_YF] | 1.98
ATARPYRPYII [LRP5_Y1528] | 1.04
KIVQDYLEKFY [MMP8_Y36_T32I] | 1.02
HICTAYKLVLA [DHCR24_Y190_E191K] | 0.867
CERLPYDASKW [FLT1_Y815] | 0.746
SLDHPFEKPRK [INAVA_Y333_Y333F] | 1.01
GLRYGYGVLGG [KRTAP20-2_Y15] | 0.933

Please look at the items below and tell me SH2 binding enrichment for each one, in order.
1. KLRMESLSLMH [NCKIPSD_Y660_Y660S]
2. YALAEYTEVKT [ALDH1A3_Y497]
3. LAIELYVVVCK [RHO_Y136_R135L]
4. TTPYNYSYIFK [RAB14_Y8_A4T]
5. LRRREYQRQDY [PRKRIP1_Y90]
6. LANNEYFFQVC
7. KRLYAYKMLMA [TMC2_Y209_Q205R]

A)
[1.15, 0.66, 0.976, 0.711, 0.76, 0.599, 1.83]

Please look at the items below and tell me SH2 binding enrichment for each one, in order.
1. LKEIHYPPFTD [ALDH3B2_Y362_YF]
2. KFANSYRMEPL [TCTE3_Y87]

A)
[0.922, 0.861]

Please look at the items below and tell me SH2 binding enrichment for each one, in order.
1. SHGKRYRVPSD [HHIPL2_Y395]
2. PPNSPYMGSSP [KCNT1_Y740_I741M]
3. MSRDVYSTDFF [NTRK2_Y702_YF]

A)
1. 0.887
2. 0.869
3. 0.835

----------
molecular target: Fyn (UniProt P06241); assay: phosphorylation enrichment, bacterial display (enrichment ratio); higher = better substrate or ligand; peptides without Tyr show the background
Sequence (P06241 whole entry, looked up): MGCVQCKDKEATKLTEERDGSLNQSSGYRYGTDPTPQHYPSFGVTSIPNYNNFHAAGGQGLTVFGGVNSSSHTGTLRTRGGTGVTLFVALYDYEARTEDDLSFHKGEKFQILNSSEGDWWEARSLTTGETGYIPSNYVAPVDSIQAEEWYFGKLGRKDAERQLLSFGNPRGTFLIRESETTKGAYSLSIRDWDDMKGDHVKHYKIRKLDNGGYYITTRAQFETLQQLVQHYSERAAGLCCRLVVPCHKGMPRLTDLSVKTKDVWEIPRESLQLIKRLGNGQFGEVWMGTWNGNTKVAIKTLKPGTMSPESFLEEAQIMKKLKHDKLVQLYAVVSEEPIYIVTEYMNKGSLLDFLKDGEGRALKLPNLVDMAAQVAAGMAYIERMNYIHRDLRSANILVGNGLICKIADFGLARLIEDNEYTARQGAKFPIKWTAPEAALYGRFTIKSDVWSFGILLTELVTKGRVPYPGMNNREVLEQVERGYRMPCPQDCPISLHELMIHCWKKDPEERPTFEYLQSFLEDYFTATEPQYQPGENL
reported_endpoint: phosphorylation enrichment

Example results:
SLDHPFEKPRK [INAVA_Y333_Y333F] | 0.721
ELTAKYLNFFQ [P3H4_Y181_YF] | 0.458

Please look at the items below and tell me phosphorylation enrichment for each one, in order.
1. ETLLFYGCRRS [POR_Y564_YF]
2. LVMFIYAISGM [SCN1A_Y1684_F1687S]

A)
1. 0.43
2. 0.442

Please look at the items below and tell me phosphorylation enrichment for each one, in order.
1. IHRWVYPLTPE [EIF2B5_Y319_R315H]
2. SFMVRYNQPRV [GRIN2D_Y736_YF]
3. IMAYFYMCDSA [CASD1_Y382_R386S]

A)
1. 0.511
2. 0.446
3. 0.523

----------
system: AncSZ; test: phosphorylation enrichment, bacterial display (enrichment ratio); higher = better substrate or ligand; peptides without Tyr show the background
reported_endpoint: phosphorylation enrichment
One number for each entry.

CTTIHCNYMCN [TP53_Y234_Y234C] | 1.06
LGRKLYSIATP [ABHD12_Y345_A349T] | 0.773
GVMLLYYGRYN [ADGRD1_Y85_T82M] | 1.53
IIQRAYRRHLL [SCN1A_Y1926] | 0.845
PTYENYANSTQ [SLC12A3_Y70_H69N] | 1.06
INMKKYCKKDY [NTN1_Y490] | 0.626

Please look at the items below and tell me phosphorylation enrichment for each one, in order.
1. KTNVSYFGALD [CACNB4_Y103_C104F]
2. IKNSGYISRFL [EIF2AK3_Y585_YF]
3. RESYKYFPSSL [CXXC1_Y218]
4. SLTGAYASGIP [POM121C_Y378_T379A]
5. PSRKDYETYQS [CTNND2_Y1154_P1159S]
6. SVTCTYFPALN [TP53_Y126_S127F]
7. LARNMYDKEYY [MET_Y1230_D1228N]
8. FTNRNYDLDYD [MYC_Y12]

A)
1. 0.789
2. 0.564
3. 1.18
4. 0.627
5. 0.875
6. 1.68
7. 1.13
8. 1.13

----------
system: Fer (mouse); assay: phosphorylation enrichment, bacterial display (enrichment ratio); higher = better substrate or ligand; peptides without Tyr show the background
Please provide measured phosphorylation enrichment for the entries that follow.
Answers are plain numbers.

Example results:
INNKMYDPKMN [ENPP1_Y280_D276N] | 0.482
LFPANYVAPMT [GRAP2_Y324] | 0.418

Please look at the items below and tell me phosphorylation enrichment for each one, in order.
1. HTLQLYRCREE [ALPK3_Y342]
2. ETCLAYREKRI [TEKT1_Y118]
3. QTWKTYVRHQQ [SFI1_Y164_Q167H]
4. SLTGAYASGIP [POM121C_Y378_T379A]
5. VPFARYLAMNK [HARS1_Y138]
6. RHPLEYLRQYP [NARS2_Y138]

A)
0.575
0.371
0.465
0.453
0.334
0.536

----------
biological target: FGFR3 (UniProt P22607); assay: phosphorylation enrichment, bacterial display (enrichment ratio); higher = better substrate or ligand; peptides without Tyr show the background
Sequence (P22607 whole entry, looked up): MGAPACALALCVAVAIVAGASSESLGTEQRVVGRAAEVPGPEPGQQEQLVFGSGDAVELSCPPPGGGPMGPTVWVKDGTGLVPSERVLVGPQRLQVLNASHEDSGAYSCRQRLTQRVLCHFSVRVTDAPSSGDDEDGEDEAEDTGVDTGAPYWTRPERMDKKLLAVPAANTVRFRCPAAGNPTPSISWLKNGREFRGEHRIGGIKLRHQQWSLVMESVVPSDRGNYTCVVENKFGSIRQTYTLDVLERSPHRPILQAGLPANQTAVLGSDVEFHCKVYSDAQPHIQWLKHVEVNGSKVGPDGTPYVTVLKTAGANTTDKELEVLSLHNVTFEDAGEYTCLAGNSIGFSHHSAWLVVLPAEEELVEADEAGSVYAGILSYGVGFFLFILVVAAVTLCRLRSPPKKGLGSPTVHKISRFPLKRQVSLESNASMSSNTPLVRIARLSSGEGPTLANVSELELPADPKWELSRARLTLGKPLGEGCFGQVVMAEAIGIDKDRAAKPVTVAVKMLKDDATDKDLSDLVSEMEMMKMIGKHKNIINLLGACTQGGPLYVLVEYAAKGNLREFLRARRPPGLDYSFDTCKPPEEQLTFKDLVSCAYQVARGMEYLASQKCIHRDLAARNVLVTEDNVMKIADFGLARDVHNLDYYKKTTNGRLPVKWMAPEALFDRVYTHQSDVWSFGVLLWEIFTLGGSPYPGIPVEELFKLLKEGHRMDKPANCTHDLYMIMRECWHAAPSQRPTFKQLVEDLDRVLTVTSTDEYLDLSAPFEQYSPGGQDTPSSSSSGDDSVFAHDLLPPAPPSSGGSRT
reported_endpoint: phosphorylation enrichment
Numbers only.

KPRKPYTIKKP [BRD2_Y715] | 2.2

Please look at the items below and tell me phosphorylation enrichment for each one, in order.
1. LRSRVYEVPVE [SLC26A3_Y756_N753S]
2. RHPREYQDLLN [DES_Y388_L385P]
3. SGGSSYGSGGC [KRT1_Y532_G537C]
4. SHTPSYCDEWL [RITA1_Y109_S113W]

A)
1: 0.833; 2: 0.572; 3: 0.667; 4: 0.779

Please look at the items below and tell me phosphorylation enrichment for each one, in order.
1. SAVTGYRVDVI [FN1_Y937]
2. QLCVNYPGGYT [PROS1_Y259]

A)
[0.534, 1.42]

----------
target: EPHB2 (UniProt P29323); test: phosphorylation enrichment, bacterial display (enrichment ratio); higher = better substrate or ligand; peptides without Tyr show the background
Sequence (P29323 whole entry, looked up): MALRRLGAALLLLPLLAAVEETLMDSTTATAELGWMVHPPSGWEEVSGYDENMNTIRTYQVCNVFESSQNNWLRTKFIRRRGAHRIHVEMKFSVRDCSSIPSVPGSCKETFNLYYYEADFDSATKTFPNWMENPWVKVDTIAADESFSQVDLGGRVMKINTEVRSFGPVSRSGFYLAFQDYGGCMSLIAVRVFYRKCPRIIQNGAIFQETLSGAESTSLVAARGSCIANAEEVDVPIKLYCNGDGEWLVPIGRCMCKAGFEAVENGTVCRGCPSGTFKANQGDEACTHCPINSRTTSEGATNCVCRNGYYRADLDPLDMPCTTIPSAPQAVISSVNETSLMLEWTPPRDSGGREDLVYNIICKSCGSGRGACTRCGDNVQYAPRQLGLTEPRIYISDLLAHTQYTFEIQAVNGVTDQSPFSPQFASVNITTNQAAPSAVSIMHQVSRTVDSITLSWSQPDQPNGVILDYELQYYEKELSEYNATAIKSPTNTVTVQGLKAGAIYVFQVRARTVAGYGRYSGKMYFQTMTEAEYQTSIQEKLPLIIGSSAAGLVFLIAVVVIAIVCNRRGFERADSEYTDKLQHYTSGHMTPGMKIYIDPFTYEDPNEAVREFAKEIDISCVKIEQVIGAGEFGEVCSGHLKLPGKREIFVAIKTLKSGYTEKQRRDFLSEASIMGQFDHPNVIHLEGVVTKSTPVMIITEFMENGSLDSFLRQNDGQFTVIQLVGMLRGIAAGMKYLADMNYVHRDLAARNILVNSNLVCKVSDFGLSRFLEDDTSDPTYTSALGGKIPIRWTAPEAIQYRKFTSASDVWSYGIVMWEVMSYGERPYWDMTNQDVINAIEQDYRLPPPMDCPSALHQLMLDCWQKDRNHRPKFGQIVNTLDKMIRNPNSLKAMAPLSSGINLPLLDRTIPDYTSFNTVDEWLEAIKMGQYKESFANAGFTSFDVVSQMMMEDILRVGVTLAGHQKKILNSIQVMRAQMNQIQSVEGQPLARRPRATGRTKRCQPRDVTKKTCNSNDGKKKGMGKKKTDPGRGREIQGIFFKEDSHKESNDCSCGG
reported_endpoint: phosphorylation enrichment
Give bare numbers.

Example results:
QTWKTYVRHQQ [SFI1_Y164_Q167H] | 0.509
QVMDGYPMPIG [MMP14_Y353] | 0.511
VLVSQYEKLDA [AMZ2_Y26_N30D] | 0.606
RGRSTYYWPRP [GAGE12J_Y9] | 0.707
RENGPYFTSFP [GDAP2_Y487_YF] | 0.645
SIVEDYRPPFF [ACVRL1_Y421_G416S_YF] | 0.46

Please look at the items below and tell me phosphorylation enrichment for each one, in order.
1. TGNGYYFRVFS [MYBPC3_Y1136_I1131T]
2. IFHLSYIHNCE [PDE6B_Y227_L228I_YF]
3. VGGRIYIDDAL [PKLR_Y218_G222A]
4. VRFMAYTDETC [F8_Y450_F455C]

A)
0.657
0.71
0.497
0.59

Please look at the items below and tell me phosphorylation enrichment for each one, in order.
1. SAVTGYRVDVI [FN1_Y937]
2. RLDGEYFTLQI [TP53_Y327_P322R]
3. IIQRAYRRHLL [SCN1A_Y1926]

A)
0.377
0.716
0.433

Please look at the items below and tell me phosphorylation enrichment for each one, in order.
1. ETSHNYHKFDS [MATR3_Y243]
2. TAIFIYIRPKA [OR10C1_Y258_L255I]
3. IRRIAYEFVEM [ADA_Y84_K80R]
4. NKYVAYIESQG [KDM4B_Y34]

A)
1: 0.451; 2: 0.68; 3: 0.543; 4: 0.472
